biological target: T1, neutravidin (UniProt P02701 25-152); assay: phage ELISA, crude phage extract, anti-M13-HRP
T1 construct: Control wells without biotinylated IL-1 Beta
T1 sequence (P02701 25-152): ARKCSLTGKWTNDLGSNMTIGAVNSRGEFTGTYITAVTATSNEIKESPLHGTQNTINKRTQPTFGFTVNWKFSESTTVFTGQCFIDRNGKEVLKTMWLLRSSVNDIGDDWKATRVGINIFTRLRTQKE

binder	binding result
wt 1F2 gene3-Fab fusion on phage (Fab, V domains shown) VH: EVQLVESGGGLVQPGGSLRLSCAASGFTFSTYAMSWVRQAPGKGPEWVSGINTGGGSTGYADSVKGRFTISRDNAKNTLYLQMNSLKPEDTAVYYCAKDWMATTPWGQGTQVTVSS VL: QAVVTQEPSLSVSPGGTVTLTCGLSSGSVTTNNYPGWFQQTPGQAPRTLIYNTNNRHSGVPSRFSGSISGNKAALTITGAQPEDEADYYCALYMSSGSNNAVFGGGTHLTVLG	no binding
hum 1F2 gene3-Fab fusion on phage (Fab, V domains shown, also called fully humanized 1F2) VH: EVQLLESGGGLVQPGGSLRLSCAASGFTFSTYAMSWVRQAPGKGLEWVSGINTGGGSTGYADSVKGRFTISRDNSKNTLYLQMNSLRAEDTAVYYCAKDWMATTPWGQGTLVTVSS VL: QTVVTQEPSFSVSPGGTVTLTCGLSSGSVTTNNYPGWYQQTPGQAPRTLIYNTNNRSSGVPDRFSGSILGNKAALTITGAQADDESDYYCALYMSSGSNNAVFGGGTKLTVLG	no binding
safe variant 1F2 gene3-Fab fusion on phage (Fab, V domains shown, The text says 'partially humanized V lambda fused to human C lambda and CH1'; the result sentence speaks of back mutations in both VL and VH, so the safe VH is used; also called safe 1F2; partially humanized 1F2) VH: EVQLLESGGGLVQPGGSLRLSCAASGFTFSTYAMSWVRQAPGKGPEWVSGINTGGGSTGYADSVKGRFTISRDNSKNTLYLQMNSLRPEDTAVYYCAKDWMATTPWGQGTQVTVSS VL: QTVVTQEPSFSVSPGGTVTLTCGLSSGSVTTNNYPGWFQQTPGQAPRTLIYNTNNRHSGVPSRFSGSILGNKAALTITGAQADDESDYYCALYMSSGSNNAVFGGGTKLTVLG	no binding
